Hey, just so you know, these numbers are from the NTF2 design screens of Basanta et al. (2020).

Recorded protease stability score by entry
- experiment_description: protease stability score; higher = more stable; yeast display proteolysis, trypsin and chymotrypsin;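 further: relative to predicted unfolded state with 0 unfolded-like and 1 meaning tenfold more protease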
The response must contain the number and no unit.

See these solved cases before continuing.
DEEEEHLRKMTKLLWDQIHTGDEKDFLRLADPNARFEVEINGRKYEAHGREEIKHMLHDILELLGIDHVRLRDLELQGNKVILHSDTHVNGQDSKMRIEILIVNGRLKSFKIQTL ... 0.995
SELEEILKIARRFFEIVMRTGDPRDIERLLDPNAKLIIDGQEIHGREKMSNTFEEMVRRYDVVKSIEDKDWKIVNGRVDLDITLNGRVDGKDISTRVIIHVEKINGRWFMREVNIE ... 2.14
KEQDHLIKNVLERLFRAFHTGNEEELEKLIDPHAMIIIGDKHFHGREEVLHTLVNLVNEIRFRDMELKDSRLFDGRVNIDLDEHIRQGDKHHLYEVHLILYKFDGRWFIRKFEIR ... 1.46
DEDREQAEEVIRSITEAMQTGDEHLWERMIDPNVRVIIDGRTYHGRLAWDLFRERYDVVHSSDSRIRHLRTYNGRVEVITQLRLDVEINGQRFETSMETHLIVLKFNGKWTVRRMEIH ... 1.67
HETEQRLEHHIKLWFKAFMTGDEELLKFLADPNVRVDDDVNGVRFLNIGMEKLAEWLRKWLRRVPNVKFDLEDVKIFENRTHIDSRLDIDGKEIELHIHLILINGRIQEIRFSVK ... 1.49
DEDQEEANHLIDLFIASLNTGDWEIIDHMADPHVKFRSVVNGKREKHIGREEMIRWFEEIEERFGYENFHVRYQRFEVQGEKMNTDITIEWNGRRFRSIILLHVFNGKLKSMEIIDI ... 1.25

Request: Specify protease stability score for TEEEEEFKRTSHEIFYALHTGNWEILEKMFDPHVRTHINGKDVHGREEATRVMELWIEELGVKHIHIKSEHHDIQGEFVRIHFHIISRVGDKFIEIEIEMEIRKINGRWRFTSIRLDRR and stop.
Response: 1.42

Request: Specify protease stability score for DDDEHDTEKLLTFYSHAERTGDEELLRHLFDPDVKLYIGDKLFIGWRLFKERFRRWVEELGINHIEVHLHRYRIQGDKIDMDTRLELRYDGRTEHVESHVIVRKVDGRWNFERMHFN and stop.
Response: 0.745
